Kindly supply the reported GI50 values for the records listed here.
- System: HCT-15

The molecule listed as "N=C(NC(=N)Nc1ccc(S(=O)(=O)Nc2cnc3ccccc3n2)cc1)Nc1ccc(Br)cc1" has a reported GI50 of > 100 µM

GI50 for "C=C1CC[C@@H]2[C@](C)(COC(=O)CCC(=O)O)CCC[C@@]2(C)[C@@H]1CCC1=CC(=O)OC1" is > 100 µM

Consider "CN(C(=O)c1ccco1)C(=S)N1CCN(c2ccccn2)CC1" . Its measured GI50 is > 100 µM

For this molecule ( "COc1cc2cnc(-c3ccccc3)cc2cc1OC" ), measured GI50 is 19 µM

Entry "CC(=O)/C(=C/c1ccccc1F)C(=O)c1ccccc1" ; GI50 = 27.7 µM

Note to self: GI50 recorded for COc1ccc(C2SCC(=O)N2c2ccc(-n3c(-c4ccccc4)nc4ccccc4c3=O)cc2)cc1OC (configuration not stated) was > 100 µM

Entry CC1(C)SC2C(NC(=O)Cc3ccccc3)C(=O)N2C1C(=O)O (configuration not stated) , GI50 reported as > 100 µM

Lab book: GI50 of C#CCNC(=O)NCCCCC(NC(=O)OCc1ccccc1)C(=O)OCc1ccccc1 (configuration not stated) noted as > 86.5 µM

Query "CN(C(=O)c1ccc(Cl)cc1)C(=S)N1CCN(c2ccccn2)CC1" yields GI50 of > 100 µM

What the record says about "C[C@]12CC[C@H]3[C@@H](CCC4=CC(=O)CC[C@@H]43)[C@@H]1CC[C@]2(O)C(N)=O" : GI50 is > 100 µM

Given item "CCOc1cc2c(c(OCC)c1O)CC[C@@H]1[C@@H]2CC[C@]2(C)[C@@H](O)CC[C@@H]12" , the value recorded as its GI50 is 0.289 µM

What the record says about "O=C(N/N=C\c1ccc([N+](=O)[O-])cc1)Nc1ccccc1" : GI50 is > 100 µM

// recorded GI50 for "O=C(O)CSCc1cccc2ccccc12" : > 100 µM

Value of GI50 reported for the molecule "COC(=O)/C(=C(\C)NC(C)=O)c1c(C(=O)OC)[nH]c2ccccc12" is > 100 µM

In plain terms, "O=C1Nc2ccccc2/C1=N/Nc1nc(-c2ccccc2)cs1" has a documented GI50 of 23.1 µM

Lab book: GI50 of "CN1c2ccccc2S(=O)(=O)n2c(COc3ccccc3)nnc21" noted as > 100 µM

Short answer for CCOC(=O)C1CCCc2sc(N)c(C#N)c21 (configuration not stated) : GI50 was > 100 µM

The value of GI50 measured for the molecule O=C1/C(=C\c2cccc(Oc3ccccc3)c2)S(=O)(=O)C(c2ccccc2)N1c1cc(Cl)ccc1Cl (configuration not stated) turned out to be 21 µM

The molecule listed as "Cc1ccc(/C=N/Nc2ncccn2)s1" shows GI50 equal to > 100 µM

The reported value for COc1ccc(/C=C/C2=NN(c3cccc(S(=O)(=O)O)c3)C3(C2)SCC(=O)N3c2nc3ccccc3s2)cc1 (configuration not stated) in terms of GI50 is 85.9 µM

Lab note: "COc1cccc(-c2cc(O)c3cc(Cl)cnc3n2)c1" gave GI50 of 0.114 µM

// GI50 value for "Clc1c2ncccc2cc2nn[nH]c12" : > 100 µM

Where these numbers come from: ChEMBL document CHEMBL1201862
